target: human F508del-CFTR (Homo sapiens, UniProt P13569, DEL508-508); experiment: F508del-CFTR cell surface expression (corrector activity), DiscoveRx ß-galactosidase complementation chemiluminescence assay in recombinant U2OS cell line; details: U2OS, in relation to Emax of corrector lumacaftor (=100%); arithmetic mean values
Sequence (P13569 with tags, fused parts or gaps DEL508-508): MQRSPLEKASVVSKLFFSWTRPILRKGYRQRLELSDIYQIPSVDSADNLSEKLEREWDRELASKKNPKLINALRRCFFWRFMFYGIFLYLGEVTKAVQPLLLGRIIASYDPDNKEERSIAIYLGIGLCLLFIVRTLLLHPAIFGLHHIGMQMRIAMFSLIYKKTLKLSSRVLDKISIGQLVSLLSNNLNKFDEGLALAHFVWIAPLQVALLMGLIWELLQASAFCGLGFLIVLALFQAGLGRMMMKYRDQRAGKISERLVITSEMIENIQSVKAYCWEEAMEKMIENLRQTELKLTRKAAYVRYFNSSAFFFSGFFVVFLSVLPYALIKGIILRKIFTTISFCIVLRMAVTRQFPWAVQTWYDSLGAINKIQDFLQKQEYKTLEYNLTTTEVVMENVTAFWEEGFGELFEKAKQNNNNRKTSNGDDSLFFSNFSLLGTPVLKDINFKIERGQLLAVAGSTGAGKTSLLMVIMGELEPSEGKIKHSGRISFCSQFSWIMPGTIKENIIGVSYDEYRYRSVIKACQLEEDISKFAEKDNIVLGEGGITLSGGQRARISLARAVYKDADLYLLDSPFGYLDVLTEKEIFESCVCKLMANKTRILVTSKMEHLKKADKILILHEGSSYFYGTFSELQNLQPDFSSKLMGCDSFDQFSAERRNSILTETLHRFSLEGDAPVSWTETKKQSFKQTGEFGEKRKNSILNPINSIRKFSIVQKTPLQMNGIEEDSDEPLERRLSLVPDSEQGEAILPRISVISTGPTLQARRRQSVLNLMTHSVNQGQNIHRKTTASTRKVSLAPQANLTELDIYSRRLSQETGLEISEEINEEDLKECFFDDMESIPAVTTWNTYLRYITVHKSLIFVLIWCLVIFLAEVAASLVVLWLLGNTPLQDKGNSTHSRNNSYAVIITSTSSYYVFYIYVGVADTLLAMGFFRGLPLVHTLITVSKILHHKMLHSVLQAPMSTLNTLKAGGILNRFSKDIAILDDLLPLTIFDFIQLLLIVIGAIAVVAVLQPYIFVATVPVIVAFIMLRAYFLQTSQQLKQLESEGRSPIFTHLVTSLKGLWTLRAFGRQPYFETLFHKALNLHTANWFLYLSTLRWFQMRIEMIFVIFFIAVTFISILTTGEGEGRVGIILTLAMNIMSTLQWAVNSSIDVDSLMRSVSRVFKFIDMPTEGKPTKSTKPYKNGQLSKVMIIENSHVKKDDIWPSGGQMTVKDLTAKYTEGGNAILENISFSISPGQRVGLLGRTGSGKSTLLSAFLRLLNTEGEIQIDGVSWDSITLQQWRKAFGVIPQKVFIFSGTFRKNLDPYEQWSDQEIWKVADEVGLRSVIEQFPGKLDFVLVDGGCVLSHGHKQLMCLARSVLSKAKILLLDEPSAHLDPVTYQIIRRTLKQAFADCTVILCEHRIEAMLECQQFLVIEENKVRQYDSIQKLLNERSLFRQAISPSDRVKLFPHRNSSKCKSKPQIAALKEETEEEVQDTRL
Give measured Emax for each item. Keep answers brief.
State just the number; it will be interpreted in %.

Note to self: Emax recorded for Cc1cc(CCNC(=O)[C@@H]2CC(=O)N(C)[C@@H](CC(C)C)C(=O)N(CCC3CCCCC3)CC(=O)N[C@H](Cc3ccccc3)COc3cnc4c(F)cccc4c3C(=O)N2)on1 was 250

Note to self: Emax recorded for COc1cc2c(cn1)OC[C@@H](Cc1ccccc1)NC(=O)[C@@H]1CCCCN1C(=O)[C@H](CC(C)C)N(C)C(=O)C[C@@H](C(=O)NCCc1noc(C3CC3)n1)NC2=O (mixture of isomers) was 155

Note to self: Emax recorded for COc1cccc(CCNC(=O)[C@@H]2CC(=O)N(C)[C@@H](CC(C)C)C(=O)N(C)CC(=O)N[C@H](Cc3ccccc3)COc3ccc4ncccc4c3C(=O)N2)c1 was 326

Note to self: Emax recorded for COc1cccc(CCNC(=O)[C@@H]2CC(=O)N(C)[C@@H](CC(C)C)C(=O)N3CCCC[C@@H]3C(=O)N[C@H](Cc3ccccc3)COc3c[n+]([O-])c4ccccc4c3C(=O)N2)c1 was 333

Note to self: Emax recorded for Cc1cc(CCNC(=O)[C@@H]2CC(=O)N(C)[C@@H](CC(C)C)C(=O)N3CCN(CCCO)C[C@@H]3C(=O)N[C@H](Cc3ccccc3)COc3ccc4ccccc4c3C(=O)N2)on1 was 292

* * *

biological target: human F508del-CFTR (Homo sapiens, UniProt P13569, DEL508-508); assay: F508del-CFTR cell surface expression (corrector activity), DiscoveRx ß-galactosidase complementation chemiluminescence assay in recombinant U2OS cell line; details: U2OS, in relation to Emax of corrector lumacaftor (=100%); arithmetic mean values
readout_label: Emax (%)
State just the number; it will be interpreted in %.

Note to self: Emax recorded for Cc1cc(CCNC(=O)[C@@H]2CC(=O)N(C)[C@@H](CC3CCCC3)C(=O)N3CCCC[C@@H]3C(=O)N[C@H](Cc3ccccc3)COc3ccc4nc(C)oc4c3C(=O)N2)on1 [Example 436] was 300

Note to self: Emax recorded for COc1cc2c(cc1OC)C(=O)N[C@H](C(=O)NCCc1ccc3c(c1)OCO3)CC(=O)N(C)[C@@H](CC(C)C)C(=O)N(CCC1CCCCC1)CC(=O)N[C@H](Cc1ccccc1)CO2 [Example 585] was 168

Note to self: Emax recorded for Cc1cc(CCNC(=O)[C@@H]2CC(=O)N(C)[C@@H](CC(C)C)C(=O)N3CCCC[C@@H]3C(=O)N[C@H](Cc3ccccc3)COc3cnc4cccc(F)c4c3C(=O)N2)on1 [Example 534] was 394

Note to self: Emax recorded for Cc1cc(CCNC(=O)[C@@H]2CC(=O)N(C)[C@@H](CC(C)C)C(=O)N(C)C3(CC3)C(=O)N[C@H](Cc3ccccc3)COc3cnc4c(F)cccc4c3C(=O)N2)on1 [Example 440] was 296

Note to self: Emax recorded for Cc1cc(CCNC(=O)[C@@H]2CC(=O)N(C)[C@@H](CC(C)C)C(=O)N3CCCC[C@@H]3C(=O)N[C@H](Cc3ccccc3)COc3ccc4c(C)noc4c3C(=O)N2)on1 [Example 629] was 215

Note to self: Emax recorded for COc1cccc(CCNC(=O)[C@@H]2CC(=O)N(C)[C@@H](CC(C)C)C(=O)N3CCN(S(=O)(=O)c4ccc5c(c4)OCCN5C)C[C@@H]3C(=O)N[C@H](Cc3ccccc3)COc3ccc4ccccc4c3C(=O)N2)c1 [Example 741] was 294

Note to self: Emax recorded for CC(C)C[C@H]1C(=O)N(C)[C@H](CC2CCCCC2)C(=O)N[C@H](Cc2ccccc2)COc2cnc3ccc(F)cc3c2C(=O)N[C@H](C(=O)NCCc2nc(C3CC3)no2)CC(=O)N1C [Example 696] was 252

Note to self: Emax recorded for Cc1cc(CCNC(=O)[C@@H]2CC(=O)N(C)[C@@H](CC(C)C)C(=O)N3CCCC[C@@H]3C(=O)N[C@H](Cc3ccccc3)COc3nc4ccccn4c3C(=O)N2)on1 [Example 470] was 169

Note to self: Emax recorded for Cc1cc(CCNC(=O)[C@@H]2CC(=O)N(C)[C@@H](CC(C)C)C(=O)N3CCN(CC(C)C)C[C@@H]3C(=O)N[C@H](Cc3ccccc3)COc3ccc4ccccc4c3C(=O)N2)on1 [Example 617] was 318

Note to self: Emax recorded for CC(C)C[C@H]1C(=O)N2CCCC[C@H]2C(=O)N[C@H](Cc2ccccc2)COc2cnc3ccc(F)cc3c2C(=O)N[C@H](C(=O)NCCc2noc(C3CC3)n2)CC(=O)N1C [Example 520] was 155

Note to self: Emax recorded for Cc1cc(CCNC(=O)[C@@H]2CC(=O)N(C)[C@@H](CC(C)C)C(=O)N3CCOC[C@@H]3C(=O)N[C@H](Cc3ccccc3)COc3ccc4ccccc4c3C(=O)N2)on1 [Example 608] was 267

Note to self: Emax recorded for Cc1cc(CCNC(=O)[C@@H]2CC(=O)N(C)[C@@H](CC3CCCC3)C(=O)N3CCCC[C@H]3C(=O)N[C@H](Cc3ccccc3)COc3ccc4nc(C)oc4c3C(=O)N2)on1 [Example 437] was 159

Note to self: Emax recorded for COc1nccc2c1C(=O)N[C@H](C(=O)NCCc1cc(C)no1)CC(=O)N(C)[C@@H](CC(C)C)C(=O)N1CCc3ccccc3[C@@H]1C(=O)N[C@H](Cc1ccccc1)CO2 [Example 679] was 277

Note to self: Emax recorded for Cc1cc(CCNC(=O)[C@@H]2CC(=O)N(C)[C@@H](CC(C)C)C(=O)N3CCCC[C@@H]3C(=O)N[C@H](Cc3ccccc3)COc3ccc4ccccc4c3C(=O)N2)on1 [Example 607] was 283

Note to self: Emax recorded for COc1cccc(CCNC(=O)[C@@H]2CC(=O)N(C)[C@@H](CC(C)C)C(=O)N3CCN(S(=O)(=O)c4cccnc4)C[C@@H]3C(=O)N[C@H](Cc3ccccc3)COc3ccc4ccccc4c3C(=O)N2)c1 [Example 742] was 246

Note to self: Emax recorded for COc1cccc(CCNC(=O)[C@@H]2CC(=O)N(C)[C@@H](CC(C)C)C(=O)N(C)C3(CC3)C(=O)N[C@H](Cc3ccccc3)COc3cnc4ccccc4c3C(=O)N2)c1 [Example 433] was 344

Note to self: Emax recorded for COc1cccc(CCNC(=O)[C@@H]2CC(=O)N(C)[C@@H](CC(C)C)C(=O)N(C)CC(=O)N[C@H](Cc3ccccc3)COc3nccc(OC)c3C(=O)N2)c1 [Example 513] was 169

Note to self: Emax recorded for COc1cccc(CCNC(=O)[C@@H]2CC(=O)N(C)[C@@H](CC(C)C)C(=O)N3CCCC[C@@H]3C(=O)N[C@H](Cc3ccccc3)COc3ccc4c(cnn4C)c3C(=O)N2)c1 [Example 423] was 239

* * *

Give measured Emax for each item. Keep answers brief.
target: human F508del-CFTR (Homo sapiens, UniProt P13569, DEL508-508); test: F508del-CFTR cell surface expression (corrector activity), DiscoveRx ß-galactosidase complementation chemiluminescence assay in recombinant U2OS cell line; conditions: U2OS, in relation to the Emax of the corrector lumacaftor (=100%); U2OS cell line, 16h compound incubation; arithmetic mean values;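 also: U2OS cells co-expressing ProLink-tagged F508del-CFTR and a membrane-anchored enzyme acceptor, where more surface CFTR restores β-galactosidase activity measured by chemiluminescence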
The number alone won't do; follow it with the unit.

Note to self: Emax recorded for CC(C)C[C@H]1C(=O)N2CCOC[C@@H]2C(=O)N[C@H](Cc2ccccc2)COc2ccc3ccccc3c2C(=O)N[C@H](C(=O)NCCc2cccc(Br)c2)CC(=O)N1C [Example 378] was 138%

Note to self: Emax recorded for COc1cccc(CCNC(=O)[C@@H]2CC(=O)N(C)[C@@H](CC(C)C)C(=O)N(CCC3CCCCC3)CC(=O)N[C@H](Cc3ccccc3)COc3cnc4ccccc4c3C(=O)N2)c1 [Example 315] was 349%

Note to self: Emax recorded for COc1cccc2c1C(=O)N[C@H](C(=O)NCCc1ccc3c(c1)OCO3)CC(=O)N(C)[C@@H](CC1CCCCC1)C(=O)N(C[C@@H]1CCCCO1)CC(=O)N[C@H](Cc1ccccc1)CO2 [Example 309] was 113%

Note to self: Emax recorded for COCCOCCNC(=O)[C@@H]1CC(=O)N(C)[C@@H](CC(C)C)C(=O)N(CCC2CCCCC2)CC(=O)N[C@H](Cc2ccccc2)COc2cccc(OC)c2C(=O)N1 [Example 22] was 104%

Note to self: Emax recorded for COc1cccc2c1C(=O)N[C@H](C(=O)NCCc1ccc3c(c1)OCO3)CC(=O)N(C)[C@@H](C)C(=O)N(CCC1CCCCC1)CC(=O)N[C@H](Cc1ccccc1)CO2 [Example 263] was 140%
